assay: AUCinfinity in BALB/c mouse at 5 mg/kg, iv by HPLC analysis; format: ADME, organism-based; settings: in vivo
ENDPOINT: AUC(0-inf) (ng·h/mL)
Numbers only, in ng·h/mL.

Prompt: Output measured AUC(0-inf) for this item: "O=c1cc(N2CCOCC2)oc2c(-c3cccc4c3sc3ccccc34)cccc12"
Completion: 1300

---

experiment: AUClast in BALB/c mouse at 10 mg/kg, po by HPLC analysis; type: ADME, organism-based; settings: in vivo
ENDPOINT: AUC(0-t) (ng·h/mL)
One number for each entry, in ng·h/mL.

Prompt: Output measured AUC(0-t) for this item: "O=c1cc(N2CCOCC2)oc2c(-c3cccc4c3sc3ccccc34)cccc12"
Completion: 817
